Entries and their measured Emax follow.
# SYSTEM TESTED: RAD51 (Homo sapiens, UniProt Q06609)
# Sequence (Q06609 1-339): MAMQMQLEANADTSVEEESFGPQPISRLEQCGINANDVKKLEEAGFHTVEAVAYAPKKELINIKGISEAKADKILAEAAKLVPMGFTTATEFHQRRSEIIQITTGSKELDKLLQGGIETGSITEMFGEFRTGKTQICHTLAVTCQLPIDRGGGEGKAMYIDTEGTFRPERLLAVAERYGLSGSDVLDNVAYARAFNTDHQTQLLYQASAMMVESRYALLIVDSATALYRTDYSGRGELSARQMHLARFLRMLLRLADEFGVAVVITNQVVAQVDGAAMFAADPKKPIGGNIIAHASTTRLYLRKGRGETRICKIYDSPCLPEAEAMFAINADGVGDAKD
# TEST SUMMARY: Fluorescence polarization-based DNA binding assay (RAD51-ssDNA binding)
# Format: biochemical
# CONDITION CONTEXT: Table 2; cells marked ↑: compound stimulates RAD51-ssDNA binding; read-out: ssDNA binding Max effect
Report as a plain number; the unit % is understood.

The examples below pair each entry with its known result.
COMPOUND	MEASUREMENT UNIT	REPORTED VALUE
C1=C(c2nc3ccccc3n3cccc23)CCCC1 [Compound 11c]	%	42
c1ccc2c(c1)nc(-c1ccc(N3CCCC3)cc1)c1cccn12	%	69

Which Emax reading was recorded for the compound c1ccc2c(-c3nc4ccccc4n4cccc34)cccc2c1 [Compound 11d] ? 56

Which Emax reading was recorded for the compound `CCNc1ccc(-c2nc3ccccc3n3cccc23)cc1` ? 2

Which Emax reading was recorded for the compound `CN(C)c1ccc(-c2nc3ccccc3n3cccc23)cc1` ? 88

Which Emax reading was recorded for the compound `FC(F)(F)Oc1ccc(-c2nc3ccccc3n3cccc23)cc1` ? 30

---

# SYSTEM TESTED: RAD51 (Homo sapiens, UniProt Q06609)
# Sequence (Q06609 1-339): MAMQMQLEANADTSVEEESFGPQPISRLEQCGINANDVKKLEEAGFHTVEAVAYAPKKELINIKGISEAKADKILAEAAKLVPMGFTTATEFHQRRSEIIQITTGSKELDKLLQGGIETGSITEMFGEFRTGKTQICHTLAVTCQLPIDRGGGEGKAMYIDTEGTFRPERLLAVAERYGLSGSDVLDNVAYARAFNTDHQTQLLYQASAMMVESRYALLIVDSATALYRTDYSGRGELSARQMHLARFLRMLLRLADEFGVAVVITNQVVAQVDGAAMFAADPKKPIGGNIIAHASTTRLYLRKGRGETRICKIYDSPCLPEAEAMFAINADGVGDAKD
# TEST SUMMARY: Fluorescence polarization-based DNA binding assay (RAD51-ssDNA binding)
# Assay type: biochemical
# CONDITION CONTEXT: summary of Tables 2 and 3
REPORTED PROPERTY: influence on RAD51-ssDNA binding, in words

SMILES TEXT	REPORTED VALUE
CN(C)c1ccc(-c2nc3ccccc3n3cccc23)cc1	modest influence
O=[N+]([O-])c1cccc(-c2nc3ccccc3n3cccc23)c1	modest influence

---

# SYSTEM TESTED: RAD51 (Homo sapiens, UniProt Q06609)
# TEST SUMMARY: Fluorescence polarization-based DNA binding assay (RAD51-ssDNA binding)
# Type: biochemical
# CONDITION CONTEXT: summary of Tables 2 and 3
REPORTED PROPERTY: influence on RAD51-ssDNA binding, in words

The examples below pair each entry with its known result.
COMPOUND	REPORTED VALUE
c1ccc2c(c1)nc(-c1ccc(N3CCCC3)cc1)c1cccn12	modest influence
COc1ccc2c(c1)nc(-c1ccc(N)cc1)c1cccn12 [Compound 12c]	only weakly influenced
COc1ccc2c(c1)nc(-c1ccc([N+](=O)[O-])cc1)c1cccn12 [Compound 12b]	stimulators
CN(C)c1ccc(-c2nc3cc(O)ccc3n3cccc23)cc1 [Compound 12g]	only weakly influenced

GET /values?readout=influence on RAD51-ssDNA binding, in words&system=RAD51 (Homo sapiens, UniProt Q06609)&item= c1ccc2c(-c3nc4ccccc4n4cccc34)cccc2c1 [Compound 11d] modest influence

GET /values?readout=influence on RAD51-ssDNA binding, in words&system=RAD51 (Homo sapiens, UniProt Q06609)&item= C1=C(c2nc3ccccc3n3cccc23)CCCC1 [Compound 11c] modest influence

GET /values?readout=influence on RAD51-ssDNA binding, in words&system=RAD51 (Homo sapiens, UniProt Q06609)&item= `CN(C)c1ccc(-c2nc3cc(OC(C)(C)C(N)=O)ccc3n3cccc23)cc1` stimulators
